Tested on: SK-MEL-2
ASSAY METHOD TEXT: NCI tumour cell line growth inhibition, 48 h
Active and inactive are the calls of the source. Rule as the data show it: active = GI50 up to about 1.1 µM and inactive = higher.
QUANTITY MEASURED: GI50

Q: Answer with the recorded GI50 for the compound listed here: NNC(=O)C(=O)N/N=C(\CCCC(=O)Nc1ccc(Cl)cc1)CC(=O)c1ccc(F)cc1
Result: 15.7 µM (inactive)

Q: Answer with the recorded GI50 for the compound listed here: CCOC(=O)c1cc2c(nc1N)-c1ncccc1CC2
Result: > 100 µM (inactive)

Q: Answer with the recorded GI50 for the compound listed here: CC(C)(C)OC(=O)NCC(=O)N1CCCN(C(=O)CNC(=O)OC(C)(C)C)CC1
Result: > 100 µM (inactive)

Q: Answer with the recorded GI50 for the compound listed here: CCOC(=O)C(CC(C)C)NC(=O)C(N)Cc1ccc(N(CCCl)CCCl)cc1 (configuration not stated)
Result: 4.83 µM (inactive)

Q: Answer with the recorded GI50 for the compound listed here: CC(C)Oc1cc(O)c2c(c1)OCC=C2CCC(=O)O
Result: 26.8 µM (inactive)

Q: Answer with the recorded GI50 for the compound listed here: O=c1c2sc(=S)n(-c3ccc(F)cc3)c2ncn1/N=C/c1ccc(F)cc1F
Result: 25.4 µM (inactive)

Q: Answer with the recorded GI50 for the compound listed here: COC(=O)C1=CO[C@@H](OC2OC(CO)C(O)C(O)C2O)[C@H]2[C@@H](C)[C@@H](O)[C@@H](O)[C@@H]12 (some centres not stated)
Result: > 100 µM (inactive)

Q: Answer with the recorded GI50 for the compound listed here: O=P1(c2ccccc2)c2ccccc2CCc2ccccc21
Result: 49.3 µM (inactive)

Q: Answer with the recorded GI50 for the compound listed here: COc1ccc(-c2cc(-c3ccc(Nc4ccnc5cc(Cl)ccc45)cc3)nc(N)c2C#N)c2ccccc12
Result: > 100 µM (inactive)

Q: Answer with the recorded GI50 for the compound listed here: CCOP(=O)(OCC)C(c1ccc(F)cc1)N(C(=O)NC(F)(F)F)c1cccc(C(F)(F)F)c1 (configuration not stated)
Result: > 100 µM (inactive)

Q: Answer with the recorded GI50 for the compound listed here: Oc1ccc2ccccc2c1/N=N/c1ccc(/N=N/c2ccccc2)cc1
Result: > 100 µM (inactive)

Q: Answer with the recorded GI50 for the compound listed here: CCSc1nc(COC(=O)NC)c(COC(=O)NC)n1C
Result: > 89.7 µM (inactive)

---

System: NCI-H23
ASSAY METHOD TEXT: NCI tumour cell line growth inhibition, 48 h
Calls of active or inactive are those of the source. Rule as the data show it: active = GI50 up to about 1.1 µM and inactive = higher.
Your reply should match one of these outcome classes. TRUE for active, FALSE for inactive

Q: Given O=C1C(Br)=CC2(C=C1Br)CCNC1=C2C2=NCCc3c[nH]c(c32)C1=O , state the outcome it received in this test.
Result: TRUE

Q: Given Clc1cccc(-c2sc(-c3cccs3)cc2Cc2cccs2)c1 , state the outcome it received in this test.
Result: FALSE

Q: Given COc1cc2c(cc1C)NC(=O)/C2=C/c1c(Cl)n(C)c2ccccc12 , state the outcome it received in this test.
Result: FALSE

Q: Given Cc1cccc(N2CCN(S(=O)(=O)c3ccc(Cl)cc3)C2=N)c1C , state the outcome it received in this test.
Result: FALSE

---

System: DU-145
ASSAY METHOD TEXT: NCI tumour cell line growth inhibition, 48 h
Activity calls are given as the source filed them. Cut-off read from the data, not from the text of the source: active = GI50 up to about 1.1 µM and inactive = higher.
Your reply should match one of these outcome classes. YES = active, NO = inactive

Q: Given CC(C)(C)C1=C(Br)C(F)(C(C)(C)C)OP1(=O)c1ccccc1 (stereo not given) , state the outcome it received in this test.
Result: NO

Q: Given COc1cc(OC)c(/C=C/c2cnc3ccccc3n2)c(OC)c1 , state the outcome it received in this test.
Result: NO

Q: Given Cc1coc2c1[C@@H](O)[C@@]1(C)[C@H](CCC[C@@H]1C)C2 , state the outcome it received in this test.
Result: NO

Q: Given Cc1cc2ncn(CC(=O)O)c2cc1C , state the outcome it received in this test.
Result: NO

Q: Given CC(C)Oc1cc(O)c2c(c1)OCC=C2CCC(=O)O , state the outcome it received in this test.
Result: NO

Q: Given OC(Cc1ccc2ccccc2n1)(C(F)(F)F)C(F)(F)F , state the outcome it received in this test.
Result: NO

Q: Given COc1cc(N(CCC#N)CCC#N)ccc1C(=N/NC(=O)c1cc(Br)ccc1O)/N=N/c1ccccc1 , state the outcome it received in this test.
Result: NO

Q: Given Cc1n(CC(C)C)c2c([n+]1C)C(=O)c1ccccc1C2=O , state the outcome it received in this test.
Result: YES

Q: Given CN1C(=O)c2ccccc2NC(=O)C12O[C@@H]2c1cccc(O)c1 (stereo not given in full) , state the outcome it received in this test.
Result: NO

Q: Given O=c1c2sc(=S)n(-c3ccc(F)cc3)c2ncn1/N=C/c1ccc(F)cc1F , state the outcome it received in this test.
Result: NO

---

Test system: T47D
ASSAY METHOD TEXT: NCI tumour cell line growth inhibition, 48 h
Activity calls are given as the source filed them. No stated cut-off is given here; in the data, active = GI50 up to about 1.1 µM and inactive = higher.
QUANTITY MEASURED: GI50

Q: Answer with the recorded GI50 for the compound listed here: Cc1coc2c1[C@@H](O)[C@@]1(C)[C@H](CCC[C@@H]1C)C2
Result: 31.4 µM (inactive)

Q: Answer with the recorded GI50 for the compound listed here: CC(=O)C1C(=O)C(C(C)=O)C2C3C=CC(C3)C12 (centres undefined)
Result: > 100 µM (inactive)

Q: Answer with the recorded GI50 for the compound listed here: COc1cc2oc(=O)ccc2cc1CC=C(C)C [SUBEROSIN]
Result: 15.8 µM (inactive)

Q: Answer with the recorded GI50 for the compound listed here: COCOC1/C=C/CCCCC2=C(C)C=C(C1)O2 (centres undefined)
Result: > 100 µM (inactive)

Q: Answer with the recorded GI50 for the compound listed here: CCCCn1cc(C(=O)O)c(=O)c2c3sccc3ccc21
Result: > 100 µM (inactive)

Q: Answer with the recorded GI50 for the compound listed here: C[C@H](NC(=O)CNC(=O)CCCCCC(=O)NCC(=O)N[C@@H](C)C(=O)OCc1ccccc1)C(=O)OCc1ccccc1
Result: > 100 µM (inactive)

Q: Answer with the recorded GI50 for the compound listed here: O=C1Nc2ccccc2NC1C1OC(c2ccccc2)=CC1=O (centres undefined)
Result: > 100 µM (inactive)

Q: Answer with the recorded GI50 for the compound listed here: CC(C)Oc1cc(O)c2c(c1)OCC=C2CCC(=O)O
Result: 39.3 µM (inactive)

Q: Answer with the recorded GI50 for the compound listed here: O=C(C1OC1c1ccc(O)cc1)C12CC3CC(CC(C3)C1)C2 (centres undefined)
Result: 22.9 µM (inactive)

Q: Answer with the recorded GI50 for the compound listed here: COc1ccc(O)c(/C(C)=N/NC(=S)N(C)C)c1
Result: 40.9 µM (inactive)

Q: Answer with the recorded GI50 for the compound listed here: CC[C@@H]1/C=C/C=C/C[C@H](C)[C@@H](O)[C@](C)(O)C(=O)[C@H](C)[C@@H](O)[C@H](C)C(=O)[C@H](C)[C@@H](O)[C@H](C)/C=C/C(=O)O[C@H]2[C@@H](C)[C@@H](CC1)O[C@]1(O[C@H](CC(C)O)[C@H](C)CC1=O)[C@@H]2C (some centres undefined)
Result: < 0.0025 µM (active)

Q: Answer with the recorded GI50 for the compound listed here: CCOC(=O)CNC1=NNS(=O)(=O)c2ccccc21
Result: > 100 µM (inactive)

Q: Answer with the recorded GI50 for the compound listed here: COC(=O)c1c(C(=O)OC)c2ccccn2c1-c1cc(C)cc2c1C(=O)C=CC2=O
Result: 4.21 µM (inactive)

Q: Answer with the recorded GI50 for the compound listed here: CC1(c2cccs2)CC(c2cccs2)=C(C#N)C(=C(C#N)C#N)N1 (centres undefined)
Result: 16.6 µM (inactive)

Q: Answer with the recorded GI50 for the compound listed here: O=C(NCCCNCCCNC(=O)c1cc(-c2ccccc2)nc2ccccc12)c1cc(-c2ccccc2)nc2ccccc12
Result: 2.02 µM (inactive)

Q: Answer with the recorded GI50 for the compound listed here: Cc1nc2ccccc2c(=O)n1NC(=O)c1ccc([N+](=O)[O-])cc1
Result: > 100 µM (inactive)

Q: Answer with the recorded GI50 for the compound listed here: O=C1Nc2ccccc2/C1=N/Nc1nc(-c2ccc(Cl)c(Cl)c2)cs1
Result: 26 µM (inactive)

Q: Answer with the recorded GI50 for the compound listed here: COc1cc(S(=O)(=O)Nc2ccc(-c3csc(/N=C\c4ccccc4O)n3)cc2)ccc1Cl
Result: 16.9 µM (inactive)

Q: Answer with the recorded GI50 for the compound listed here: CCOC(=O)CCC(NC(=O)c1ccc(NCc2ccc3nc(OC)c(OC)nc3c2)c2ccccc12)C(=O)OCC (centres undefined)
Result: > 100 µM (inactive)

Q: Answer with the recorded GI50 for the compound listed here: C=C1C(=O)O[C@H]2C/C(C)=C/CC[C@@]3(C)O[C@](C)(CC[C@@H]3I)[C@@H](I)C[C@@H]12
Result: 5.46 µM (inactive)

Q: Answer with the recorded GI50 for the compound listed here: c1cc2sc1CSCCSCCSC2
Result: > 100 µM (inactive)

Q: Answer with the recorded GI50 for the compound listed here: S=C1SCN(C2CCCCCCCCCCC2)CN1C1CCCCCCCCCCC1
Result: > 100 µM (inactive)

Q: Answer with the recorded GI50 for the compound listed here: C=C(C)CCC(=O)[C@](C)(O)[C@H]1[C@H](O)C[C@@]2(C)[C@@H]3CCc4c(cc(OC5OC(CO)C(O)C(O)C5O)c(O)c4C)C3(C)C(=O)C[C@]12C (some centres undefined)
Result: > 100 µM (inactive)

Q: Answer with the recorded GI50 for the compound listed here: COc1ccc(C(c2ccc(OC)cc2)N2C(=O)CCC2C(=O)O)cc1 (centres undefined)
Result: > 100 µM (inactive)
